Target: T1, CAPRIN-1 protein expressed on the membrane surface of human cancer cells (human, UniProt Q14444 2-709)
T1 sequence (looked up): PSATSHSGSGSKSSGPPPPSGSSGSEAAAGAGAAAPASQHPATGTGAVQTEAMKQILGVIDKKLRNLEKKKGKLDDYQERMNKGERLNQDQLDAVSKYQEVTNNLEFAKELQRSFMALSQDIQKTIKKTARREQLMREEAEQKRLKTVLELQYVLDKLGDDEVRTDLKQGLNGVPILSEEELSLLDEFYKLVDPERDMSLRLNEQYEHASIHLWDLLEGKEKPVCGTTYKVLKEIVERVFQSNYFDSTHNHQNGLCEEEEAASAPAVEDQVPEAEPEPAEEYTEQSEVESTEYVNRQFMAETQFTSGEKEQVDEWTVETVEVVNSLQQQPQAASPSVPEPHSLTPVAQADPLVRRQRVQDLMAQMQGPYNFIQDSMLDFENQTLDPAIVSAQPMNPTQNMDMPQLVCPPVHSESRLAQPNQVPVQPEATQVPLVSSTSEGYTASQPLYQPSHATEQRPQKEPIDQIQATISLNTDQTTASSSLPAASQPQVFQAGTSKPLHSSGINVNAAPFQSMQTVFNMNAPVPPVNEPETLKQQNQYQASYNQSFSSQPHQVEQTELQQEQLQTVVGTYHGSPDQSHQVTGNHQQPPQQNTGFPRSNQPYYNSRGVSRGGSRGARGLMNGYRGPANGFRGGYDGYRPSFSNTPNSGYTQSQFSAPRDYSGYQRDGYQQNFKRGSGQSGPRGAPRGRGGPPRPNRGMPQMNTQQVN
Assay: cell-based or functional assay
endpoint-label: ADCC cytotoxic activity (51Cr release) on Ramos

- binder: "humanized antibody #5 (antibody, V domains shown) VH: EVQLVESGGGLVQPGGSLRLSCAASGFSLSSHSLGWVRQAPGKGLEWIGDIRSGGSAYYANWAKGRFTISRDNSKNTLYLQMNSLRAEDTAVYFCTRTNGPSDLTNRLDLWGQGTLVTVSS VL: EQVLTQSPSSLSASVGDRVTINCQASQSLYNNENLAWFQQKPGKVPKRLIYGASTLASGVSSRFSGSGSGTEFTLTISNLQPEDFAIYYCLGEFSCGSADCFAFGGGTKVEIK"
  recorded-result: "≥ 18%"

Proceeding to the next binder to report its ADCC cytotoxic activity (51Cr release) on Ramos.
Inquiry: Report ADCC cytotoxic activity (51Cr release) on Ramos for humanized antibody #7 (antibody, V domains shown) VH: EVQLVESGGGLVQPGGSLRLSCAASGFSLSSHSLGWVRQAPGKGLEWIGDIRSGGSAYYANWAKGRFTISRDNSKNTLYLQMNSLRAEDTAVYYCTRTNGPSDLTNRLDLWGQGTLVTVSS VL: QVLTQSPSSLSASVGDRVTINCQASQSLYNNENLAWFQQKPGKVPKRLIYGASTLASGVSSRFSGSGSGTEFTLTISSLQCEDFAIYYCLGEFSCGSADCFAFGGGTKVEIK
Reply text: ≥ 20%

Where do these numbers come from? They come from patent US20160297889A1.
